B1: library; a variant is named by its letters at N, in order (parent)
chain: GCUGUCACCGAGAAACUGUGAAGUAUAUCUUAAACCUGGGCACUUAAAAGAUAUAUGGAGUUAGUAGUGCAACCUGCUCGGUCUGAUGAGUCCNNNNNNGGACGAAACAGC

# Variants of: B1
# Procedure text: normalized RNA/DNA level without ligand (relative to sTRSVctl = 100) (log10 (% of sTRSVctl)); HEK293T; ligand: cyclic di-GMP (c-di-GMP-II aptamer); higher = less ribozyme self-cleavage, higher mRNA level
# Assay conditions: reporter: mCherry (pCS4076), ligand present: no
Measured quantity: normalized RNA/DNA level without ligand (log10)

>>> df
   mutant_label  reading
0        GUCGAC      1.6
1        GUGAUA      1.5
2        GGCCAA     1.64
3        GAGCAC     1.82
4        CAACUG     1.75
5        UGCGCC     1.79
